Recorded measurements of Neutralizing activity_IC50, one per entry
# Tested target: T1, rabbit EL-C2 tag (rabbit)
# T1 chain: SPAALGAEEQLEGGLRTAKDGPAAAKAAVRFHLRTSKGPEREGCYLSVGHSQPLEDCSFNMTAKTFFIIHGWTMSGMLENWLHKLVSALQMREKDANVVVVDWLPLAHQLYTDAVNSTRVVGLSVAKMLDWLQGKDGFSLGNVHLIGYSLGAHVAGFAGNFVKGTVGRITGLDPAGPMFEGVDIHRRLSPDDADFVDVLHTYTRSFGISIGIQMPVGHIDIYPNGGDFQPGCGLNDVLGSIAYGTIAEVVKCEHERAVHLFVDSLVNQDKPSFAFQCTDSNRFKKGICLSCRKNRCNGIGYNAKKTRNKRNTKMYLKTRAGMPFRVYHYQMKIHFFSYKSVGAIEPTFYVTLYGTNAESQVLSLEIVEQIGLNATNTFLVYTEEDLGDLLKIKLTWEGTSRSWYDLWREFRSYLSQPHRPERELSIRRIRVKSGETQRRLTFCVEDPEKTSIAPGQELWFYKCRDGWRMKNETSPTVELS
# Assay procedure: cell-based or functional assay
Your answer is read as nM, so omit the unit and give the number.

Worked examples follow.
# Binder, Neutralizing activity_IC50, nM
rows = [
    ("25E4 antibody (antibody, IgG2b, V domains shown) VH: QVALKESGPGILQPSQTLSLTCSFSGFSLSTSGMGVGWIRQPSGKGLEWLAHIWWHGNKYYSTALKSRLTISKDTSNNQVFLKIASVDTADTATYYCARISDGYPLDYWGQGTSVTVSS VL: DIQMTQSPSSLSASLGGKVTITCKASQDINKYIVWYQQKPGKGPRLLIHYTSTLQPGFPSRFSGSGSGRDYSLSITNLEPEDIATYYCLQYDNLLWTFGGGTKLEIK", 85),
    ("8F5 antibody (antibody, IgG2a, V domains shown) VH: QVTLKESGPGILQPSQTLSLTCSFSGFSLSTSNMGVGWIRQPSGKGLEWLAHIWWNDYKYYNTALKSRLTISKDTSNNQVFLKIASLDTADTATYYCARIGGGTPLDYWGQGTSLTVSS VL: DIQMAQSPSSLSASLGGKVTITCKASQDIHTYIAWYQHKPGKGPRLLMLYTSTLQPGIPSRFSGSGSGRDYSFSISNLEPEDIATYYCLQYDDLLWTFGGGTKLEIK", 98),
    ("12B10 antibody (antibody, IgG2a, V domains shown) VH: QVTLKESGPGILKPSQTLSLTCSFSGFSLSTSGMGVGWIRQPSGKGLEWLAHIWWNDEKYYNPSLKSQLTISKDTSRNQVFLKITSVDTADTATYYCARSYDGSPFPSWGQGTLVTVSA VL: DIQMTQSPSSLSASLGGKVTITCKASQDINKYIAWFQHKPGKGPRLLMAYPFTLQPGIPSRFSGNGSGRDYSFSISNLEPEDIATYYCLQYDNLLWTFGGGTRLEIK", 201),
    ("41H8 antibody (antibody, IgG1, V domains shown) VH: QVTLKESGPGILQPSQTLSLTCSFSGFSLSTYGMGVGWIRQPSGKGLEWLAHIWWNENKYYNTDLKSRLTISKDTSNNQVFLKIASVDTADTATYYCARIGPGVPFDYWGQGTTITVSS VL: DIQMTQSPSSLSASLGGKVTITCKASQDINKFIAWYQHKPGKGPRLLIHYTSTLQPGIPSRFNGSGSGRDYSFTISNLEPEDIATYYCLQYDILTWTFGGGTKLEIK", 391),
    ("16A11 antibody (antibody, IgG1, V domains shown) VH: QVTLKESGPGILQPSQTLSLTCSFSGFSLSTSGMGVGWVRQPSGKGLEWLAHIWWNDYYYYKTALKSRLTISKDTSNNQVFLKIASVDTVDTATYYCARMAPGTPFPSWGQGTLVTVSA VL: DIQMTQSPSSLSASLGGKVTITCKASQDINRYIAWYQHKPGKGPRLLIHYTSTLQPGIPSRFSGSGSGRDYSFSISNLEPEDIATYYCLQYDILLWTFGGGTKLEIK", 69),
]

Looking up 3B1 antibody (antibody, IgG1, V domains shown) VH: QVTLKESGPGILQPSQTLSLTCSFSGFSLSTSGVGVGWIRQPSGKGLEWLAHIWWNDNKYYNTALKSRLTISKDTSNNQVFLKIASVDTADTATYFCARSYDGYPFDYWGQGTLVTVSA VL: DIQMTQSPSSLSASLGGKVTITCKASQDINKYIVWYQHKPGKGPRLLIHHTSTLQPGIPSRFSESGSGRDYSFSISNLEPEDIASYYCLQYDTLLWTFGGGTKLEIR , I see its Neutralizing activity_IC50 listed as 207

The reported Neutralizing activity_IC50 of the binder 47B2 antibody (antibody, IgG2a, V domains shown) VH: QVALKESGPGILQPSQTLSLTCSFSGFSLSTSGMGVGWIRQPSGKGLEWLAHIWWHGNKYYSTGLKSRLTISKDTSNNQVFLKIASVDTADTATYYCARISAGYPLDYWGQGTSVTVSS VL: DIQMTQSPSSLSASLGGKVTITCKASQDINKYIVWYQHKPGKGPRLLIHYTSTLQPGFPSRFSGSGSGRDYSLSITNLEPEDIATYYCLQYDNLLWTFGGGTKLEIK was 37
